Measured IC50 accompanies every entry in the list below.
- assay-system: N-His-Tb-BIR3 (241-356, XIAP) (Homo sapiens (Human), UniProt P98170)
- experiment: biochemical
- Format: binding
- protocol-conditions: fluoresceinated modified SMAC peptide, fluorescence polarization; read-out: XIAP BIR3 FPA IC50
Return type: number; implicit unit nM.

Would you please look over these solved cases?
>  <substance-smiles>
CC[C@H](NC)C(=O)N[C@H](C(=O)N1Cc2cc(OCc3ccc(C(=O)N[C@H]4C[C@@H](C(=O)N[C@@H]5CCCc6ccccc65)N(C(=O)[C@@H](NC(=O)[C@H](C)NC)C(C)(C)C)C4)cc3)ccc2C[C@H]1C(=O)N[C@@H]1CCCc2ccccc21)C(C)(C)C

>  <unit-spec>
nM

>  <IC50>
130

$$$$
>  <substance-smiles>
CN[C@@H](C)C(=O)N[C@H](C(=O)N1Cc2cc(NC(=O)c3ccc(CO[C@H]4C[C@@H](C(=O)N[C@@H]5CCCc6ccccc65)N(C(=O)[C@@H](NC(=O)[C@H](C)NC)C(C)(C)C)C4)cc3)ccc2C[C@H]1C(=O)N[C@@H]1CCCc2ccccc21)C(C)(C)C

>  <unit-spec>
nM

>  <IC50>
67

$$$$
>  <substance-smiles>
CN[C@@H](C)C(=O)N[C@H](C(=O)N1Cc2cc(NC(=O)c3ccc(CO[C@H]4C[C@@H](C(=O)N[C@@H]5CCCc6ccccc65)N(C(=O)[C@@H](NC(=O)[C@H](C)NC)C(C)(C)C)C4)cc3)ccc2C[C@H]1C(=O)N[C@H](C)c1ccccc1F)C(C)(C)C

>  <unit-spec>
nM

>  <IC50>
53

$$$$
>  <substance-smiles>
CN[C@@H](C)C(=O)N[C@H](C(=O)N1Cc2cc(NC(=O)c3ccc(CCC(=O)N[C@H]4C[C@@H](C(=O)N[C@@H]5CCCc6ccccc65)N(C(=O)[C@@H](NC(=O)[C@H](C)NC)C(C)(C)C)C4)cc3)ccc2C[C@H]1C(=O)N[C@@H]1CCCc2ccccc21)C(C)(C)C

>  <unit-spec>
nM

>  <IC50>
65

$$$$
>  <substance-smiles>
CN[C@@H](C)C(=O)N[C@H](C(=O)N1Cc2cc(N(C(=O)C3(C(N)=O)CCC3)[C@H]3C[C@@H](C(=O)N[C@@H]4CCCc5ccccc54)N(C(=O)[C@@H](NC(=O)[C@H](C)NC)C(C)(C)C)C3)ccc2C[C@H]1C(=O)N[C@@H]1CCCc2ccccc21)C(C)(C)C

>  <unit-spec>
nM

>  <IC50>
69

$$$$
>  <substance-smiles>
CN[C@@H](C)C(=O)N[C@H](C(=O)N1Cc2cc(NC(=O)c3ccc(C(=O)Nc4ccc5c(c4)CN(C(=O)[C@@H](NC(=O)[C@H](C)NC)C(C)(C)C)[C@H](C(=O)N[C@@H](COC)c4ccccc4)C5)cc3)ccc2C[C@H]1C(=O)N[C@@H](COC)c1ccccc1)C(C)(C)C

>  <unit-spec>
nM

>  <IC50>
130

$$$$
>  <substance-smiles>
CN[C@@H](C)C(=O)N[C@H](C(=O)N1Cc2cc(OC(=O)c3ccc(C(=O)N[C@H]4C[C@@H](C(=O)N[C@@H]5CCCc6ccccc65)N(C(=O)[C@@H](NC(=O)[C@H](C)NC)C(C)(C)C)C4)cc3)ccc2C[C@H]1C(=O)N[C@@H]1CCCc2ccccc21)C(C)(C)C

>  <unit-spec>
nM

>  <IC50>
69

$$$$
>  <substance-smiles>
CCN[C@@H](C)C(=O)N[C@H](C(=O)N[C@H](C(=O)N1Cc2cc(OCc3ccc(C(=O)N[C@H]4C[C@@H](C(=O)N[C@@H]5CCCc6ccccc65)N(C(=O)[C@@H](NC(=O)[C@H](C)NC)C(C)(C)C)C4)cc3)ccc2C[C@H]1C(=O)N[C@@H]1CCCc2ccccc21)C(C)(C)C)C(C)(C)C

>  <unit-spec>
nM

>  <IC50>
660

$$$$

In: Fill in IC50 for record CN[C@@H](C)C(=O)N[C@H](C(=O)N1Cc2cc(N(C(=O)C3(C(N)=O)CC3)[C@H]3C[C@@H](C(=O)N[C@@H]4CCCc5ccccc54)N(C(=O)[C@@H](NC(=O)[C@H](C)NC)C(C)(C)C)C3)ccc2C[C@H]1C(=O)N[C@@H]1CCCc2ccccc21)C(C)(C)C
Out: 53

In: Tell us which IC50 value is on record for CN[C@@H](C)C(=O)N[C@H](C(=O)N1Cc2cc(C(=O)NC3(C(=O)N[C@H]4C[C@@H](C(=O)N[C@@H]5CCCc6ccccc65)N(C(=O)[C@@H](NC(=O)[C@H](C)NC)C(C)(C)C)C4)CC3)ccc2C[C@H]1C(=O)N[C@@H]1CCCc2ccccc21)C(C)(C)C
Out: 98

In: Give the value of IC50 reported for the following: CN[C@@H](C)C(=O)N[C@H](C(=O)N1Cc2cc(C(=O)NC(C)(C)C(=O)N[C@H]3C[C@@H](C(=O)N[C@@H]4CCCc5ccccc54)N(C(=O)[C@@H](NC(=O)[C@H](C)NC)C(C)(C)C)C3)ccc2C[C@H]1C(=O)N[C@@H]1CCCc2ccccc21)C(C)(C)C
Out: 61

In: Kindly indicate its recorded IC50. Item: CCN[C@@H](C)C(=O)N[C@H](C(=O)N1Cc2cc(NC(=O)c3ccc(C(=O)N[C@H]4C[C@@H](C(=O)N[C@@H]5CCCc6ccccc65)N(C(=O)[C@@H](NC(=O)[C@H](C)NC)C(C)(C)C)C4)cc3)ccc2C[C@H]1C(=O)N[C@@H]1CCCc2ccccc21)C(C)(C)C
Out: 150

In: Give recorded IC50. CN[C@@H](C)C(=O)N[C@H](C(=O)N1Cc2cc(NCc3ccc(C(=O)N[C@H]4C[C@@H](C(=O)N[C@@H]5CCCc6ccccc65)N(C(=O)[C@@H](NC(=O)[C@H](C)NC)C(C)(C)C)C4)cc3)ccc2C[C@H]1C(=O)N[C@@H]1CCCc2ccccc21)C(C)(C)C
Out: 71

In: Complete the entry with IC50 for CN[C@@H](C)C(=O)N[C@H](C(=O)N1Cc2cc(NC(=O)CCC(=O)N[C@H]3C[C@@H](C(=O)N[C@@H]4CCCc5ccccc54)N(C(=O)[C@@H](NC(=O)[C@H](C)NC)C(C)(C)C)C3)ccc2C[C@H]1C(=O)N[C@@H]1CCCc2ccccc21)C(C)(C)C
Out: 61

Cited source: patent US9783573B2
